These data points were gathered from patent US11214540B2.

assay: log P; format: physicochemical
quantity_measured: log P

molecule | log P
COC1CCN(C(C)CC(C)(C)c2ccc(C(F)(F)F)cc2)CC1 (stereo not drawn) | 4.49

I. CC(C)=CC(CC(C)(C)c1ccc(F)cc1)N1CCC2(CCOCC2)CC1 (stereo not drawn)
II. CC(CC(C)(C)c1ccc(F)cc1)N1CCC(CO)CC1 (stereo not drawn)
Which has the higher log P, I or II ? // respond with label for picked entry
I

---

test: log P; assay type: physicochemical
quantity_measured: log P

// solved cases for log P follow
molecule | quantity_measured | value_reported
CC(C)=CC(CC(C)(C)c1ccc(Cl)cc1)N1CCC(C)(C)CC1 (centres unmarked) [Compound 31] | log P | 6.7
CC(C)=CC(CC(C)(C)c1ccc(C)cc1)NC1CCOCC1 (centres unmarked) [Compound 100] | log P | 4.75
CC(C)=CC(CC(C)(C)c1ccc(Cl)cc1)N1CCC2(CC1)OCc1ccccc12 (centres unmarked) [Compound 187] | log P | 6.62

P. COC[C@H]1CCCN1C(C=C(C)C)CC(C)(C)c1ccc(Cl)cc1 (some centres unmarked) [Compound 246]
Q. CC(C)(CCN1CCC(CO)CC1)c1ccc(Cl)cc1 [Compound 283]
Which has the higher log P, P or Q ? // respond with label for picked entry
P

---

biological target: potassium channel hERG (Homo sapiens (Human), UniProt Q12809); assay: In vitro testing for hERG inhibition; type: biochemical; details: in vitro toxicity potassium channel hERG
Sequence (Q12809 whole entry): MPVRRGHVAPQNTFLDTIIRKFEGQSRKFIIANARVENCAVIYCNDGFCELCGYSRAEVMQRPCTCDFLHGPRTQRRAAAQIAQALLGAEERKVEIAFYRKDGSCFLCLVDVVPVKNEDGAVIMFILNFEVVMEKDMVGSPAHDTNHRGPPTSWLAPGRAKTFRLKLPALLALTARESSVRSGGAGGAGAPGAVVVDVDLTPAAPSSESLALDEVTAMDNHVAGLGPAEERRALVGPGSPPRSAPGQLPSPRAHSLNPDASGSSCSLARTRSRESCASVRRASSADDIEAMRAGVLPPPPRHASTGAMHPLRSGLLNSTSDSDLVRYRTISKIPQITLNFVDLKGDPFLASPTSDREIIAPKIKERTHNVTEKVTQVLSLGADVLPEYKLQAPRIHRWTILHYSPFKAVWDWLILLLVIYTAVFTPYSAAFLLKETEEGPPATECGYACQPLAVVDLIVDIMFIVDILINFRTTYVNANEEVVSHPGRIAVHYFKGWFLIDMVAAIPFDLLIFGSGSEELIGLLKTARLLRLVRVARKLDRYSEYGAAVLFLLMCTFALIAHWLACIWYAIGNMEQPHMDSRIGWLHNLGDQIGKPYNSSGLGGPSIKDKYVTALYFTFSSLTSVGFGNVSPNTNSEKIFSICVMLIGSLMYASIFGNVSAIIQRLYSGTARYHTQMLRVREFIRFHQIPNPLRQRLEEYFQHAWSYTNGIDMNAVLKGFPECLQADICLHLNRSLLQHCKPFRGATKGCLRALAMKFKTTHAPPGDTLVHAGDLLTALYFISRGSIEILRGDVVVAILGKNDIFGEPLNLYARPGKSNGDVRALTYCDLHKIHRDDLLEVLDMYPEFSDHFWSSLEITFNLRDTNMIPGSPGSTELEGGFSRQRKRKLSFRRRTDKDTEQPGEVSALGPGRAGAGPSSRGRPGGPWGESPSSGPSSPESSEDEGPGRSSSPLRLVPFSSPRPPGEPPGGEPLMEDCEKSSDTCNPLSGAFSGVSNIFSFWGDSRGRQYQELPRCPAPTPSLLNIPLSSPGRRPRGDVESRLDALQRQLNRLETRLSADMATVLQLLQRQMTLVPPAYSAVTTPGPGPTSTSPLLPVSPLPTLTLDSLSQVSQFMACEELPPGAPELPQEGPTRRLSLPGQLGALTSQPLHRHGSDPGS
Quick list: IC50 per entry.
Give a bare numeral; the unit µM is implied.

compound | value_reported
CC(CC(C)(C)c1ccc(Cl)cc1)N1CCC(C)(O)CC1 (stereo not shown) | 1.7
CC(C)=CC(CC(C)(C)c1ccc(Cl)cc1)N1CC[C@H](O)C1 (stereo partly shown) | 16
CC(=O)N1CCN(C(C=C(C)C)CC(C)(C)c2ccc(F)cc2)CC1 (stereo not shown) | 32
CC(C)=C[C@@H](CC(C)(C)c1ccc(C(F)(F)F)cc1)N1CCC[C@@H]1CO | 14

Record lookup: for potassium channel hERG (Homo sapiens (Human), UniProt Q12809), what IC50 belongs to CC(C)=CC(CC(C)(C)c1ccc(Cl)cc1)N1CCC2(CCOCC2)CC1 (stereo not shown) ?
4

Record lookup: for potassium channel hERG (Homo sapiens (Human), UniProt Q12809), what IC50 belongs to CC(C)=CC(CC(C)(C)c1ccc(C(F)(F)F)cc1)N1CCC(C2CCOCC2)CC1 (stereo not shown) ?
1

Record lookup: for potassium channel hERG (Homo sapiens (Human), UniProt Q12809), what IC50 belongs to `COC[C@H]1CCCN1[C@@H](C)CC(C)(C)c1ccc(C(F)(F)F)cc1` ?
5

Record lookup: for potassium channel hERG (Homo sapiens (Human), UniProt Q12809), what IC50 belongs to CC(C)=CC(CC(C)(C)c1ccc(Cl)cc1)N1CCC(F)CC1 (stereo not shown) ?
7.2

Record lookup: for potassium channel hERG (Homo sapiens (Human), UniProt Q12809), what IC50 belongs to CC(C)=CC(CCc1ccc(F)cc1)N1CCC(C2CCOCC2)CC1 (stereo not shown) [Compound 65] ?
2.3

---

Quick list: pIC50 per entry.
target: potassium channel hERG (Homo sapiens (Human)); test: In vitro testing for hERG inhibition; type: biochemical; settings: in vitro toxicity potassium channel hERG
Give only the number. pIC50 is defined as minus log10 of concentration in molar units.

// solved cases for pIC50 follow
compound | pIC50
COCCCC1CCN(C(C=C(C)C)CC(C)(C)c2ccc(Cl)cc2)CC1 (stereo not shown) [Compound 23] | 5.66
CC(C)=CC(CC(C)(C)c1ccc(C(F)(F)F)cc1)N1CCC(OC(C)C)CC1 (stereo not shown) [Compound 44] | 5.04

# get_value(readout='pIC50', item= CC(C)=CC(CC(C)(C)c1ccc(C(F)(F)F)cc1)N1CCC(CO)CC1 (stereo not shown) [Compound 35] )
4.87

# get_value(readout='pIC50', item= CC(C)=CC(CC(C)(C)c1ccc(C(F)(F)F)cc1)N1CCCCC1 (stereo not shown) [Compound 61] )
5.14

# get_value(readout='pIC50', item= COC1CCN(C(C)CC(C)(C)c2ccc(C(F)(F)F)cc2)CC1 (stereo not shown) [Compound 6] )
6.12

# get_value(readout='pIC50', item= CC(CC(C)(C)c1ccc(C(F)(F)F)cc1)N1CCC(CCO)CC1 (stereo not shown) [Compound 2] )
5.04

# get_value(readout='pIC50', item= CC(CC(C)(C)c1ccc(C(F)(F)F)cc1)N1CCC(O)CC1 (stereo not shown) [Compound 13] )
5.60

# get_value(readout='pIC50', item= CC(C)=CC(CC(C)(C)c1ccccc1)N1CCC(O)CC1 (stereo not shown) [Compound 201] )
4.82

# get_value(readout='pIC50', item= CC(C)=CC(CC(C)(C)c1ccc(C(F)(F)F)cc1)N1CCC(CCOC2CCOC2)CC1 (stereo not shown) [Compound 182] )
5.59

# get_value(readout='pIC50', item= CC(C)=CC(CC(C)(C)c1ccc(F)cc1)N1CCC2(CCOCC2)CC1 (stereo not shown) [Compound 36] )
5.00

---

assay: log P; format: physicochemical
quantity_measured: log P

compound | quantity_measured | value_reported
CC(C)=CC(CC(C)(C)c1ccc(F)cc1)N1CCC(C)(C)CC1 (stereo not drawn) [Compound 131] | log P | 6.24
COc1cc(CCC(C)(C)N2Cc3cccc(C(=O)N4CCN(C(=O)Oc5ccccc5)CC4)c3C2)ccc1O [Compound 256] | log P | 5.01

a. CC(C)=CC(NCC(C)C)C(C)(C)Oc1ccc(F)cc1 (stereo not drawn) [Compound 176]
b. CC(C)(CCN1CCC(CO)CC1)c1ccccc1 [Compound 308]
Which has the higher log P, a or b ? // respond with label for picked entry
a
(a: 4.96, b: 3.01)

---

What follows is a collection of Ki values obtained with Sigma-2 receptors on membranes from rat cerebral cortex (Rattus norvegicus (Rat)).
Sequence (Q5U3Y7 whole entry): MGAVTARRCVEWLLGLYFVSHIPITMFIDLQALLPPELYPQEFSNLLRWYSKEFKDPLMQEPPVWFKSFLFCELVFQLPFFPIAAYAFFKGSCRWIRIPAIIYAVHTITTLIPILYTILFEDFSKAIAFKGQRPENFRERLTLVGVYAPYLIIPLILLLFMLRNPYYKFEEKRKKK
quantity_measured: Ki (nM)

// solved cases for Ki follow
compound | display_unit | value_reported
CC(C)=CC(CC(C)(C)c1ccc(Cl)cc1)N1CCC(c2cccc(S(C)(=O)=O)c2)CC1 (stereo not shown) [Compound 46] | nM | 86
CC(C)=CC(CC(C)(C)c1ccc(C(F)(F)F)cc1)N1CCOCC1 (stereo not shown) [Compound 72] | nM | 400
CC(C)=CC(CC(C)(C)c1ccc(Cl)cc1)N1CCC(c2ccnc(N3CCCC3)c2)CC1 (stereo not shown) [Compound 63] | nM | 240

1. CC(=O)N1CCN(C(C=C(C)C)CC(C)(C)c2ccc(F)cc2)CC1 (stereo not shown) [Compound 81]
2. CC(C)=CC(CC(C)(C)c1ccc(C(F)(F)F)cc1)N1CCCCC1 (stereo not shown) [Compound 61]
3. CC(C)=CC(CC(C)(C)c1ccc(S(C)(=O)=O)cc1)N1CCC(c2ccncc2)CC1 (stereo not shown) [Compound 51]
4. CC(C)(CCN1CCC(O)CC1)c1ccc(Cl)cc1 [Compound 8]
List the 4 entries from lowest Ki to highest Ki value. Sort the labels as requested; that list is your answer.
4, 3, 2, 1

---

assay: Mouse liver microsome (MLM) stability; format: in vitro ADME; details: microsomal stability in mouse liver microsomes (MLM)
quantity_measured: MLM T1/2 (min)

// solved cases for MLM T1/2 follow
compound | display_unit | MLM T1/2
CC(C)=CC(CCc1ccc(C)cc1)N1CCOCC1 (stereo not drawn) | min | 3.4
CC(C)=CC(CCc1ccc(Cl)cc1)N1CCCCC1 (stereo not drawn) | min | 6.2

I. CC(C)=CC(CC(C)(C)c1ccc(F)cc1)N1CCC(C)(O)CC1 (stereo not drawn)
II. COc1ccc(CCC(C=C(C)C)N2CCCCC2)cc1 (stereo not drawn)
III. CC(C)=CC(CC(C)(C)c1ccc(Cl)cc1)N1CCC(C2CCN(C)CC2)CC1 (stereo not drawn)
IV. CC(C)=CC(CC(C)(C)c1ccc(C)cc1)N1CCC2(CC1)COC2 (stereo not drawn)
V. CC(C)=CC(CC(C)(C)c1ccc(Cl)cc1)N(C)CC1CCOCC1 (stereo not drawn)
List the 5 entries from lowest MLM T1/2 to highest MLM T1/2 value. Sort the labels as requested; that list is your answer.
II, IV, V, III, I

A. CC(C)=CC(CC(C)(C)c1ccc(C(F)(F)F)cc1)N1CCC(O)CC1 (stereo not drawn)
B. CC(C)=CC(CC(C)(C)c1ccc(Cl)cc1)N1CCC(F)CC1 (stereo not drawn)
Which has the higher MLM T1/2, A or B ? // respond with label for picked entry
A

---

assay: log P; type: physicochemical
quantity_measured: log P

// solved cases for log P follow
molecule | log P
CC(C)=CC(CC(C)(C)c1ccc(C(F)(F)F)cc1)N1CCC(N2CCCCC2)CC1 (centres unmarked) [Compound 127] | 6.41
CC(C)=CC(CC(C)(C)c1ccc(C)cc1)N1CCN(c2ccccc2)CC1 (centres unmarked) [Compound 60] | 6.91
COC1CN(C(C=C(C)C)CC(C)(C)c2ccc(Cl)cc2)C1 (centres unmarked) [Compound 167] | 5.1

a. COCCCC1CCN([C@@H](C=C(C)C)CC(C)(C)c2ccc(Cl)cc2)CC1 [Compound 292]
b. COc1cc(CCC(C)(C)N2Cc3cccc(C(=O)N4CCN(C(=O)[C@H](C)N)CC4)c3C2)ccc1O [Compound 269]
c. COc1ccc(C(C)(C)CC(C=C(C)C)N(C)C2CCOCC2)cc1 (centres unmarked) [Compound 108]
List the 3 entries from lowest log P to highest log P value. Sort the labels as requested; that list is your answer.
b, c, a
(b: 2.2, c: 4.46, a: 6.49)
